- measurement_target: ileum of a guinea pig (Cavia porcellus, UniProt P31389)
- Sequence (P31389 whole entry): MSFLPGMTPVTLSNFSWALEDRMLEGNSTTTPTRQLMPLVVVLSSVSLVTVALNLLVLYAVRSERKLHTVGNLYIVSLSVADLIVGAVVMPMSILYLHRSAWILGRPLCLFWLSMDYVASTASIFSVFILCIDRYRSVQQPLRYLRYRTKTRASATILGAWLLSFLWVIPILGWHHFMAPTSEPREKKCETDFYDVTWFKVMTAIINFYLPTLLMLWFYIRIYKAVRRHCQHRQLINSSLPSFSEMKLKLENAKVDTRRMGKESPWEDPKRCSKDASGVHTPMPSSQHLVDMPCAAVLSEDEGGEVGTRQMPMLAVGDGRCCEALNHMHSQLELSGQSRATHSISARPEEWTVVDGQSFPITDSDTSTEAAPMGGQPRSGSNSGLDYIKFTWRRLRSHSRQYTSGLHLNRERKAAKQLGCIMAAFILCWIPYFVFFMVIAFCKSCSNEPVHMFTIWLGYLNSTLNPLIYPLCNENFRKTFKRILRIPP
- protocol_summary: cell-based
- run_parameters: histamine-induced retraction of guinea pig ileum, test compound 10^-6 g/ml, 36° C., Van Rossam method; read-out: pA2 (converted)
Structures can show the parent of a compound that is named as a salt.
Everything with Kb lower than 0.3 nM is no; everything else, including exactly 0.3 nM, is yes.

Is Kb at least 0.3 nM? Consider `Cc1cc(=O)[nH]c2cc(OCCCN3CCC(Cc4ccccc4)CC3)ccc12`
no

Kindly determine if Kb recorded for C=CCN1C(=O)CCc2c(OCC(O)CN3CCC(Cc4ccccc4)CC3)cccc21.O=C(O)C(=O)O (stereo not drawn) [Compound 6, monooxalate] is above or exactly 0.3 nM.
no

Could you verify whether the entry CN1C(=O)CCc2ccc(OCCCN3CCC(Cc4ccccc4)CC3)cc21.O=C(O)C(=O)O [Compound 2, monooxalate] shows Kb of no less than 0.3 nM?
no

Reported Kb at or above 0.3 nM? COc1ccc(N2CCN(CC(O)COc3ccc(NC(N)=O)c4c3CCC(=O)N4)CC2)cc1.Cl (stereo not drawn) [S, hydrochloride, reference compound]
yes

Please tell me: is the compound `O=c1cc(-c2ccccc2)c2ccc(OCCCN3CCC(c4ccccc4)CC3)cc2[nH]1` at or over 0.3 nM in terms of Kb?
no

Reported Kb reaches at least 0.3 nM for C[N+]1(CC(O)COc2cccc3c2CCC(=O)N3)CCC(c2ccccc2)CC1 (stereo not drawn) ?
yes

Test whether the compound COc1ccc(CCNC(C)C(=O)c2cc(Cl)c3c(c2)CCC(=O)N3)cc1OC (stereo not drawn) [L, monohydrochloride, reference compound] records Kb of 0.3 nM or higher.
yes

Reported Kb reaches at least 0.3 nM for CN1C(=O)CCc2c(OCCCN3CCC(Cc4ccccc4)CC3)cccc21.Cl [Compound 4, monohydrochloride] ?
no

For this compound, is measured Kb 0.3 nM or higher? CC(C(O)c1cc(Cl)c2c(c1)CCC(=O)N2)N1CCN(c2ccccc2)CC1 (stereo not drawn) [M, monohydrochloride, reference compound]
yes

Entry O=C(O)C(=O)O.O=C1CCc2c(OCC(O)CN3CCC(Cc4ccccc4)CC3)cccc2N1Cc1ccccc1 (stereo not drawn) [Compound 12, monooxalate] : is its Kb no less than 0.3 nM?
no

Check the entry CC(C)(C)NCC(O)c1cc(Cl)c2c(c1)CCC(=O)N2 (stereo not drawn) [K, monohydrochloride, reference compound] : does Kb equal or exceed 0.3 nM?
yes

Say whether Cc1ccccc1N1CCN(CC(O)COc2ccc(NS(C)(=O)=O)c3c2CCC(=O)N3)CC1 (stereo not drawn) [T, reference compound] shows Kb of 0.3 nM or more.
yes

Answer whether Kb of COc1ccc(CCNC(C)C(O)c2cc(Cl)c3c(c2)CCC(=O)N3)cc1OC (stereo not drawn) [O, hydrochloride, reference compound] is greater than or equal to 0.3 nM.
yes

Does the compound O=C1CCc2ccc(OCC(O)CN3CCC(c4ccccc4)CC3)cc2N1 (stereo not drawn) have recorded Kb that is 0.3 nM or more?
no

====

For each record, write down the corresponding pA2.
- measurement_target: UniProt P31389
- protocol_summary: cell-based
- run_parameters: histamine-induced retraction of guinea pig ileum, test compound 10^-6 g/ml, 36° C., Van Rossam method
Where a name gives a salt, the structure may show the parent alone.
Write the value as a bare number.

For UniProt P31389, give pA2 of the listed compound: CC(=O)C1(c2ccccc2)CCN(CCCOc2ccc3c(c2)NC(=O)CC3)CC1 [Compound 15]
9.92

With UniProt P31389 as the test system, provide measured pA2 for this compound: Cc1cc(=O)[nH]c2cc(OCCCN3CCN(Cc4ccc(Cl)cc4)CC3)ccc12 [J, reference compound]
9.13

State recorded pA2 with UniProt P31389, entry O=c1ccc2cccc(OCCCN3CCN(c4ccccc4)CC3)c2[nH]1 [F, reference compound] , no comment.
8.58

Recall the reported pA2 of O=C1CCc2c(cccc2OCCCN2CCC(O)(c3ccccc3)CC2)N1 [Compound 14] when tested on UniProt P31389.
9.30

Name the value of pA2 reported for COc1ccc(N2CCN(CC(O)COc3ccc(OCc4ccccc4)c4c3CCC(=O)N4)CC2)cc1 (centres unmarked) [R, hydrochloride, reference compound] when tested on UniProt P31389.
9.57
